- Read-out: DNA damage-inducible transcript 3 (DDIT3), DDIT3 (gene 1649)
- assay.procedure: LTEA_HepaRG_DDIT3: Life Technologies and Expression Analysis (LTEA) Assay for DNA damage-inducible transcript 3 (DDIT3) using HepaRG (AID 2283488)
- experimental.context: mRNA level, 48 h; actives raise or lower the signal
Calls of active or inactive are those of the source. Rule for the calls: active = hit-call score of the fitted dose curve at least 0.9, where 1 is the maximum; inactive = score below 0.9.
API: response.call in t = active, f = inactive

Examples with answers:
# molecule, class.name
rows = [
    ("Cc1ccc(S(=O)(=O)O)cc1C", "f"),
    ("O=C(OC[C@H]1O[C@@H](OC(=O)c2cc(O)c(O)c(OC(=O)c3cc(O)c(O)c(O)c3)c2)[C@H](OC(=O)c2cc(O)c(O)c(OC(=O)c3cc(O)c(O)c(O)c3)c2)[C@@H](OC(=O)c2cc(O)c(O)c(OC(=O)c3cc(O)c(O)c(O)c3)c2)[C@@H]1OC(=O)c1cc(O)c(O)c(OC(=O)c2cc(O)c(O)c(O)c2)c1)c1cc(O)c(O)c(OC(=O)c2cc(O)c(O)c(O)c2)c1", "t"),
    ("CCc1cc(SCc2sc(-c3ccc(C(F)(F)F)cc3)nc2CN2CCN(c3ccc(OC)cc3)CC2)ccc1OCC(=O)O", "t"),
    ("CCCCCCCCO", "f"),
    ("COc1ccc(/C=C/S(=O)(=O)NC(=O)c2ccc(C)cc2Cl)cc1", "f"),
    ("CCOc1cccc(-n2cc(C(=O)N3CCN(c4cc(C(=O)O)c5ccccc5c4)CC3)nc2-c2ccc(C)cc2)c1", "t"),
    ("CCOCCO", "f"),
    ("CC1=CC(=O)CC(C)(C)C1", "f"),
    ("CC(O)CN(CCN(CC(C)O)CC(C)O)CC(C)O (stereo not drawn)", "f"),
    ("O=C1CCCCCN1", "f"),
]

Prompt: Recorded call for Cc1c(-c2cccnc2)c2ccccc2n1CCCCC(=O)O ?
Response: f

Prompt: Recorded call for NC(=O)NO ?
Response: f

Prompt: Recorded call for O=C(O)c1cc(N=Nc2ccc(S(=O)(=O)Nc3ccccn3)cc2)ccc1O ?
Response: f

Prompt: Recorded call for Nc1ccc(Nc2ccccc2)cc1 ?
Response: f

Prompt: Recorded call for On1ccccc1=S ?
Response: f

Prompt: Recorded call for O=P(OC(CCl)CCl)(OC(CCl)CCl)OC(CCl)CCl ?
Response: t

Prompt: Recorded call for CC(C)CC(C)(O)C#CC(C)(O)CC(C)C (stereo not drawn) ?
Response: f

Prompt: Recorded call for CCCC(=O)OCC ?
Response: f
